Reference source for all entries: patent US9233977B2

Target: LRRK2 G2019S mutant kinase (Homo sapiens, UniProt Q5S007, G2019S)
Construct: GST
Sequence (Q5S007 whole entry G2019S): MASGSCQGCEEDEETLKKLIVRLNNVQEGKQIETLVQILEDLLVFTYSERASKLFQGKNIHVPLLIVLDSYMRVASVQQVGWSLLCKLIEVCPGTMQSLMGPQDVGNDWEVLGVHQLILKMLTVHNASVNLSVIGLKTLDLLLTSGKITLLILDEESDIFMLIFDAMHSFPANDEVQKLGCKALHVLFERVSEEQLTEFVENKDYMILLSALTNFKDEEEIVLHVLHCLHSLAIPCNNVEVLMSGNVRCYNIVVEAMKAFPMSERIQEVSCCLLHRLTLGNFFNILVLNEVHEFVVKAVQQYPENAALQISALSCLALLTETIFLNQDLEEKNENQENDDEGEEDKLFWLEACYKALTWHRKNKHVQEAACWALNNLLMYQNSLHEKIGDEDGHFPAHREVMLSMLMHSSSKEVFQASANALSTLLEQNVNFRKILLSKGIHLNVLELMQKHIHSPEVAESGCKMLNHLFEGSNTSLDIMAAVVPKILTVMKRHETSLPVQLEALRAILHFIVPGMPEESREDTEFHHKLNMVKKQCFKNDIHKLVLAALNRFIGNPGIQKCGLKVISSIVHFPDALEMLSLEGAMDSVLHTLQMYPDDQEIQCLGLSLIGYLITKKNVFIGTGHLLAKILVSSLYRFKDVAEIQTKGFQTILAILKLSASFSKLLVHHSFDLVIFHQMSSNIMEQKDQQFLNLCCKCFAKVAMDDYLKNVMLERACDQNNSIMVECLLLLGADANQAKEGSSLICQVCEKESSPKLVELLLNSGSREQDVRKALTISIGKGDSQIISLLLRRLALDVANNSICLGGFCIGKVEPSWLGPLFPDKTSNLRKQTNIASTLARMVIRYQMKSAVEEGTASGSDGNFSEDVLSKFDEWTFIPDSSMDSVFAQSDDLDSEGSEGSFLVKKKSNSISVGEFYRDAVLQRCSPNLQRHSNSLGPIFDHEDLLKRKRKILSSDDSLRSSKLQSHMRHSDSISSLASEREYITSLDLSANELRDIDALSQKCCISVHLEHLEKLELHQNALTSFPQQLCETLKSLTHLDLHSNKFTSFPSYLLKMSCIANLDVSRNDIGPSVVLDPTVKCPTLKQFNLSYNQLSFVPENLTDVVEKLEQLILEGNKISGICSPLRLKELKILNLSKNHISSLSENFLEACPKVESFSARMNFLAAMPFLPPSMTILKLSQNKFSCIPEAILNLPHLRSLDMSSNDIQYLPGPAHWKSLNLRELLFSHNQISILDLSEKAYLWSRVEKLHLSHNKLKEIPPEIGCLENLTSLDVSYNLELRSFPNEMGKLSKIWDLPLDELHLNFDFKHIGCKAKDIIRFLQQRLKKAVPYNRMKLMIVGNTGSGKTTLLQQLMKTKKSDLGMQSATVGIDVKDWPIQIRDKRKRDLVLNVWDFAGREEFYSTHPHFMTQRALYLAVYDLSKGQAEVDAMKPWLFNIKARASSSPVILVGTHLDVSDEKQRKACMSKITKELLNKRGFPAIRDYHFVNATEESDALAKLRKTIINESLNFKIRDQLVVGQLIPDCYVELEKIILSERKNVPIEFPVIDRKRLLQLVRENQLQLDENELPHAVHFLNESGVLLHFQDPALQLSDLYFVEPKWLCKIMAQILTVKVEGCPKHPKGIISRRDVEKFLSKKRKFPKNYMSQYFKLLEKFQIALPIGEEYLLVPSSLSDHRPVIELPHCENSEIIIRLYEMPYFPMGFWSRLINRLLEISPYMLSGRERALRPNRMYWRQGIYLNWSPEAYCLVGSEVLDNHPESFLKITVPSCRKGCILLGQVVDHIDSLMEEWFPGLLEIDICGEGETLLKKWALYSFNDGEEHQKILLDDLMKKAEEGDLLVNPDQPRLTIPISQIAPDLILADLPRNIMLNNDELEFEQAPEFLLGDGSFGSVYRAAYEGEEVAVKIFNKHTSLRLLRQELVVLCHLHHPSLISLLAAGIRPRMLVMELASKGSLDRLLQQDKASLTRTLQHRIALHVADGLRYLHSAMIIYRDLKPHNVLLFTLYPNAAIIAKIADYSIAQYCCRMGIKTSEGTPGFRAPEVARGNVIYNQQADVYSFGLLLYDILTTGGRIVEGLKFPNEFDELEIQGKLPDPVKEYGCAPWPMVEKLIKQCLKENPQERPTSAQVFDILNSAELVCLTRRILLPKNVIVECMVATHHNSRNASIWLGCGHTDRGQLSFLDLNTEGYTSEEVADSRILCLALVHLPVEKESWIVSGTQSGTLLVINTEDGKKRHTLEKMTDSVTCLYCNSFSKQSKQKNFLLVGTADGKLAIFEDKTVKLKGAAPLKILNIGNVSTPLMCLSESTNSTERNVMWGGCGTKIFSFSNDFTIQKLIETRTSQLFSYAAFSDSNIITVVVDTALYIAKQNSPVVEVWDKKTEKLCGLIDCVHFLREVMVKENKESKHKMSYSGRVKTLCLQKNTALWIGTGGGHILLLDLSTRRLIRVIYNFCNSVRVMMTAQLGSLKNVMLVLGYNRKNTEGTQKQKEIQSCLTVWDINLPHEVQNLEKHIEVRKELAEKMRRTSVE
Measurement Protocol: LRRK2 G2019S LanthaScreen TR-FRET kinase assay
Cond: LRRK2 G2019S GST-tagged protein, 75 nM Fluorescein-ERM (LRRKtide), 100 μM ATP, 1 hour at room temperature; read-out: IC50 (potency)
pIC50: −log10 of the molar value.
Outcome: True for pIC50 of at least 6; False for anything lower.

INSERT INTO measurements (molecule, target, answer_label) VALUES
  ('CCC(C)CSc1sc(-c2cc[nH]n2)c2c1C(=O)NCC2 (stereo not drawn)', 'LRRK2 G2019S mutant kinase (Homo sapiens, UniProt Q5S007, G2019S)', 'True'),
  ('CSc1sc(-c2cc[nH]n2)c2c1C(=O)N(CC1CCNC1)CC2 (stereo not drawn)', 'LRRK2 G2019S mutant kinase (Homo sapiens, UniProt Q5S007, G2019S)', 'False'),
  ('CNc1sc(-c2cc[nH]n2)c2c1C(=O)N[C@H](C)C2', 'LRRK2 G2019S mutant kinase (Homo sapiens, UniProt Q5S007, G2019S)', 'False'),
  ('CSc1sc(-c2cc[nH]n2)c2c1C(=O)NC[C@H]2C', 'LRRK2 G2019S mutant kinase (Homo sapiens, UniProt Q5S007, G2019S)', 'True'),
  ('CSc1sc(-c2cc[nH]n2)c2c1C(=O)N(CC1CCOCC1)CC2', 'LRRK2 G2019S mutant kinase (Homo sapiens, UniProt Q5S007, G2019S)', 'False'),
  ('O=C1NC(Cc2ccccc2)Cc2c(-c3cc[nH]n3)sc(NC3CCCC3)c21 (stereo not drawn)', 'LRRK2 G2019S mutant kinase (Homo sapiens, UniProt Q5S007, G2019S)', 'True'),
  ('O=C1NCCc2c(-c3cc[nH]n3)sc(SC3CCCCC3)c21', 'LRRK2 G2019S mutant kinase (Homo sapiens, UniProt Q5S007, G2019S)', 'True'),
  ('CCCSc1sc(-c2cc[nH]n2)c2c1C(=O)NCC2', 'LRRK2 G2019S mutant kinase (Homo sapiens, UniProt Q5S007, G2019S)', 'True'),
  ('CSc1sc(-c2cc[nH]n2)c2c1C(=O)N(c1ccccc1)CC2', 'LRRK2 G2019S mutant kinase (Homo sapiens, UniProt Q5S007, G2019S)', 'False'),
  ('CSc1sc(-c2cc[nH]n2)c2c1C(=O)N(CCCCc1ccccc1)CC2', 'LRRK2 G2019S mutant kinase (Homo sapiens, UniProt Q5S007, G2019S)', 'False');

## Input For this molecule, is measured pIC50 6 or higher? CCCCNCCSc1sc(-c2cc[nH]n2)c2c1C(=O)NCC2
## Output False

## Input Please tell me: is the molecule COCC1Cc2c(-c3cc[nH]n3)sc(SC)c2C(=O)N1 (stereo not drawn) at or over 6 in terms of pIC50?
## Output True

## Input State whether the measured pIC50 reaches 6, counting equality as reaching it, for CC1CNC(=O)c2c(NC3CCCC3)sc(-c3cc[nH]n3)c21 (stereo not drawn)
## Output True

## Input Does CNc1sc(-c2cc[nH]n2)c2c1C(=O)NC1(CCC1)C2 have a reported pIC50 of at least 6?
## Output True

## Input Is the recorded value of pIC50 equal to or greater than 6 for this molecule? CSc1sc(-c2cc[nH]n2)c2c1C(=O)N(CCCc1ccccc1)CC2
## Output False

## Input Does the reported pIC50 for CCC(C)CSc1sc(-c2cc[nH]n2)c2c1C(=O)N[C@@H](C)C2 (stereo partly drawn) fall at or above the 6 mark?
## Output True

## Input Check the entry CSc1sc(-c2cc[nH]n2)c2c1C(=O)N(C(C)C)CC2 : does pIC50 equal or exceed 6?
## Output False

## Input Quick check: does O=C(O)CSc1sc(-c2cc[nH]n2)c2c1C(=O)NCC2 have pIC50 greater than or equal to 6?
## Output False

## Input Identify whether the reported pIC50 of the following molecule is 6 or greater: CC1CNC(=O)c2c(SCC3CC3)sc(-c3cc[nH]n3)c21 (stereo in doubt)
## Output True

## Input Does the reported pIC50 for CSc1sc(-c2cc[nH]n2)c2c1C(=O)N(CCC1CCCCC1)CC2 fall at or above the 6 mark?
## Output False

## Input Form field: pIC50 at least 6? Entry: CSc1sc(-c2cc[nH]n2)c2c1C(=O)NCC2Cc1ccccc1 (stereo not drawn)
## Output True

## Input Given the entry CSc1sc(-c2cc[nH]n2)c2c1C(=O)N(CCc1ccccn1)CC2 , answer whether its pIC50 meets or surpasses 6.
## Output False

## Input Given the entry CSc1sc(-c2cc[nH]n2)c2c1C(=O)N(C)CC2 , answer whether its pIC50 meets or surpasses 6.
## Output False
